# Lookup of reported normalized RNA/DNA level without ligand (log10) keyed by entry
B1: library; a variant is named by its letters at N, in order (parent)
chain: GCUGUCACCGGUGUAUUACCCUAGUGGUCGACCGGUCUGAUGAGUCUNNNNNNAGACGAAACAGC

- Variants of: B1
- experimental protocol: normalized RNA/DNA level without ligand (relative to sTRSVctl = 100) (log10 (% of sTRSVctl)); ligand: hypoxanthine (xanthine aptamer); higher = less ribozyme self-cleavage, higher mRNA level
- condition: HEK293T, reporter: mCherry (pCS4076), ligand present: no
The answer should be written as a number, with no unit following it.

Q: # get_value(readout='normalized RNA/DNA level without ligand (log10)', item= GCUGUCACCGGUGUAUUACCCUAGUGGUCGACCGGUCUGAUGAGUCUUAGAUGAGACGAAACAGC [UAGAUG] )
Ans: 1.61

Q: Which measured normalized RNA/DNA level without ligand (log10) value corresponds to GCUGUCACCGGUGUAUUACCCUAGUGGUCGACCGGUCUGAUGAGUCUGGGGCAAGACGAAACAGC [GGGGCA] ?
Ans: 1.91
